Tested on: HT-29
assay details: NCI tumour cell line growth inhibition, 48 h
Activity calls are given as the source filed them. Cut-off read from the data, not from the text of the source: active = GI50 up to about 1.1 µM and inactive = higher.
Outcome codes: t (active), f (inactive)

> print(dat)
                                    compound  answer.label
 1  CN(CCCNC(=O)c1nn(C)c2c1Cc1ccccc1-2)CCCNC(=O)c1nn(C)c2c1Cc1ccccc1-2             f
 2    COc1ccc2oc3c(OC)c(OC)c(OC)cc3c(=O)c2c1             f
 3  CCCN(CCC)c1c([N+](=O)[O-])cc(C(=O)N(C)C)cc1[N+](=O)[O-]             f
 4  COc1ccc2[nH]c(Cl)c(/C=C3/C(=O)Nc4cc(C)c(OC)cc43)c2c1             f
 5  CC(=O)OCC1OC(n2cc(F)c(=O)[nH]c2=O)C(N)C(OC(C)=O)C1OC(C)=O (stereo not drawn)             f
 6  CC(O)C(NC(=O)c1ccccc1)C(=O)N(Cc1ccccc1)Cc1ccccc1 (stereo not drawn)             f
 7  O=C1CCC(=O)N1n1c(Cc2ccc(Cl)cc2)n[nH]c1=O             f
 8                     Cc1ccc(Sc2ccccc2N)cc1             f
 9                COc1ccc(NC(=O)CC(=O)NN)cc1             f
10  Cc1cc(N(CCC#N)CCC#N)ccc1/C=C(\NC(=O)/C=C/c1ccccc1)NC(=O)Nc1ccc(Cl)cc1             f
11                       Oc1ccc2occ3c2c1CCC3             f
12              CC(C)(C)NC(=S)N/N=C/c1ccccn1             t
13                   O=C1Nc2ccccc2Nc2ccncc21             f
14  Nc1nc(F)nc2c1ncn2C1OC(CO)C(O)C1O (stereo not drawn)             f
15  CCCN(CCCC(NC(C)=O)C(=O)NCc1ccccc1)C(=O)N(CCCl)N=O (stereo not drawn)             f
16  CN(C)c1ccc(/C=N/c2ccc(Oc3ccc(Cl)cc3)c(Cl)c2)cc1             f
17  C[S+]([O-])c1cc(=O)c2ccccc2s1 (stereo not drawn)             f
18  CCC12C=CCN3CCC4(C(=C(C(=O)OC)[C@@H]1O)Nc1ccccc14)C32 (stereo partly drawn)             f
19   O=C(Nc1nc2ncn(CCI)c2c(=O)[nH]1)c1ccccc1             f
20  COC1=CC(=O)c2c(cc(COP(=O)(OCC3OC(n4cc(F)c(=O)[nH]c4=O)CC3O)N(C)CCCCCl)n2C)C1=O (stereo not drawn)             t
21        CN(C)C(=S)/N=c1\ssc(=S)n1Cc1ccccn1             f
22  CCC(=O)NC(OCC1(CC)COC1)(C(F)(F)F)C(F)(F)F             f
23          O=c1[nH]c2ccccc2cc1C(Cl)=C(Cl)Cl             f

====

Tested on: SF-539
assay details: NCI tumour cell line growth inhibition, 48 h
Activity calls are given as the source filed them. Rule as the data show it: active = GI50 up to about 1.1 µM and inactive = higher.
Classes used: T for active, F for inactive

> print(dat)
                                    molecule  answer.label
 1    CC(C)(C)OC(=O)[C@H]1CCC(=S)N1Cc1ccccc1             F
 2                       O=C1CSc2sc(=S)sc2S1             F
 3  CC12CC3(C)CC(C)(C1)CC(N=[N+]=[N-])(C2)C3             F
 4  CCOC(=O)CCC(NC(=O)c1ccc(OCc2ccc3nc(-c4ccccc4)c(Cl)nc3c2)cc1)C(=O)OCC (stereo unspecified)             F
 5  O=C(NNC(c1ccccc1)C(F)(F)F)c1ccncc1 (stereo unspecified)             F
 6  CC1(C)CC2=NOS3=C2C(=NO3)C1c1ccccn1 (stereo unspecified)             F
 7         CCOC(=O)c1c(N2CCCC2)nsc1Nc1ccccc1             F
 8  COC1=CC(=O)c2c(cc(COP(=O)(OCC3OC(n4cc(F)c(=O)[nH]c4=O)CC3O)N(C)CCCCCl)n2C)C1=O (stereo unspecified)             T
 9      O=C(/C=C\c1ccc(-c2ccccc2)cc1)c1cccs1             F
10  COC(=O)C(Cc1c[nH]c2ccccc12)NC(=O)c1ccc(-c2ccc(Cl)cc2Cl)o1 (stereo unspecified)             F
11  O=C(Nc1nc2ncn(CCNCc3ccccc3)c2c(=O)[nH]1)c1ccccc1             F
